- assayName: Horizontal screen test (HS), neurological impairment
- Assay type: in vivo
- protocolConditions: mouse, in vivo; mice; determined using the horizontal screen test (footnote xx); 95% confidence intervals in brackets; read-out: Tox TD50
- Description: Pharmacology. […] N-Acetyl-D,L-alanine-N'-benzylamide was tested at 600 mg/mL as well. […] The effects of the compounds on forced and spontaneous motor activity were evaluated in mice using the Rotorod Test (Tox) or, in some cases, as indicated herein, a horizontal screen assay (HS). […] The rod was rotated 180°, and the number of mice that returned to the top of the screen was determined. […]

[
  {
    "compound": "CC(=O)NC(C(=O)NCc1ccccc1)c1ccco1 (racemic)",
    "TD50 (mg/kg)": 23.8
  },
  {
    "compound": "CC(=O)NC(C(=O)NCc1ccc(F)cc1)c1ccco1 (racemic)",
    "TD50 (mg/kg)": 144
  },
  {
    "compound": "CC(=O)NC(C(=O)NCc1cccc(F)c1)c1ccco1 (racemic)",
    "TD50 (mg/kg)": 136
  }
]

###

- Test system: male Carworth Farms #1 mice
- assayName: Maximal electroshock seizure test (MES)
- Assay type: in vivo
- protocolConditions: Mus musculus, maximal electroshock seizures, 50 mA, 0.2 sec, corneal electrodes, 95% confidence intervals in brackets
We label by threshold. Values of ED50 strictly beneath 30 mg/kg are Y. Values of 30 mg/kg and up are N.

[
  {
    "molecule": "CC(=O)NC(C(=O)NCc1ccc(F)cc1)c1ccco1 (racemic)",
    "groupLabel": "Y"
  },
  {
    "molecule": "CC(=O)NC(C(=O)NCc1ccccc1)c1ccc(C)o1 (racemic)",
    "groupLabel": "Y"
  },
  {
    "molecule": "CC(=O)NC(C(=O)NCc1ccccc1)c1ccc(C)[nH]1 (racemic)",
    "groupLabel": "N"
  },
  {
    "molecule": "CC(=O)NC(C(=O)NCc1ccccc1F)c1ccco1 (racemic)",
    "groupLabel": "N"
  },
  {
    "molecule": "CC(=O)NC(C(=O)NCc1cc(F)ccc1F)c1ccco1 (racemic)",
    "groupLabel": "Y"
  },
  {
    "molecule": "CCNC(NC(C)=O)C(=O)NCc1ccccc1 (racemic)",
    "groupLabel": "N"
  },
  {
    "molecule": "CC(=O)NC(C(=O)NCc1cccc(F)c1)c1ccco1 (racemic)",
    "groupLabel": "Y"
  },
  {
    "molecule": "C=CCC(NC(C)=O)C(=O)NCc1ccccc1 (racemic)",
    "groupLabel": "N"
  },
  {
    "molecule": "CNC(NC(C)=O)C(=O)NCc1ccccc1 (racemic)",
    "groupLabel": "N"
  }
]

###

// reported TD50 for each item listed
- assayName: Rotorod Test (Tox), neurologic toxicity
- protocolConditions: mouse, in vivo, mice, median toxic dose, 95% confidence intervals in brackets
readoutLabel: TD50 (mg/kg)

[
  {
    "molecule": "CC(=O)NC(C(=O)NCc1ccccc1)c1ccco1 (racemic)",
    "rel": ">",
    "valueReported": 300
  },
  {
    "molecule": "CNC(NC(C)=O)C(=O)NCc1ccccc1 (racemic)",
    "rel": "=",
    "valueReported": 95
  }
]

###

- Test system: male Carworth Farms #1 mice
- assayName: Maximal electroshock seizure test (MES)
- Assay type: in vivo
- protocolConditions: Mus musculus, maximal electroshock seizures, 50 mA, 0.2 sec, corneal electrodes, 95% confidence intervals in brackets
// reported ED50 for each item listed
readoutLabel: ED50

[
  {
    "molecule": "CC(=O)NC(C(=O)NCc1ccccc1)c1cc2ccccc2s1 (racemic)",
    "valueReported": "100 to 300 mg/kg"
  },
  {
    "molecule": "CC(=O)NC(C(=O)NCc1ccccc1)c1cc2ccccc2o1 (racemic)",
    "valueReported": "100 to 300 mg/kg"
  },
  {
    "molecule": "CC(=O)NC(C(=O)NCc1c(F)cccc1F)c1ccco1 (racemic)",
    "valueReported": "25 to 100 mg/kg"
  },
  {
    "molecule": "CC(=O)NC(C(=O)NCc1ccccc1)N1CCOCC1 (racemic) [reference compound]",
    "valueReported": "30 to 100 mg/kg"
  }
]
